Values from paper PMC11388281

assay target: UniProt:I4ZBT3
readout kind: IC50 (µM)
Number only, in µM; omit the unit.

Please look up its IC50: CC(=O)N[C@H]1[C@H]([C@H](O)[C@H](O)CO)OC(C(=O)O)=C[C@@H]1O 103

* * *

Listed here: compounds with reported pIC50 for UniProt:D1VWZ8.
// scale note: pIC50 = -log10(conc_M); give the bare number

What value of pIC50 has been recorded for this entry: CC(=O)N[C@H]1[C@H]([C@H](O)[C@H](O)CO)OC(C(=O)O)=C[C@@H]1N=C(N)N 4.47

Fill blank: measured pIC50 of the compound CC(=O)N[C@H]1[C@H]([C@H](O)[C@H](O)CO)OC(C(=O)O)=C[C@@H]1O is ____. 4.25

* * *

assay target: UniProt S4HLQ0
readout kind: IC50 (µM)
Numeric answer only, unit µM assumed.

Fill in: IC50 of CC(=O)N[C@H]1[C@H]([C@H](O)[C@H](O)CO)OC(C(=O)O)=C[C@@H]1O [Neu5Ac2en] is ___ 29

* * *

assay target: PdNanH (Prevotella denticola, UniProt F0H7U2)
readout kind: pIC50
For clarity, pIC50 is expressed as the negative log10 of concentration in mol/L.

For the compound shown here, CC(=O)N[C@H]1[C@H]([C@H](O)[C@H](O)CO)OC(C(=O)O)=C[C@@H]1O , give the reported pIC50. 4.30
